Record form. Attribute: WBC. Fill in for each entry.
MEASUREMENT_NOTES: Cynomolgus monkey tolerability, hematology (Example 34)
Type: in vivo, cynomolgus monkeys
APPLIED_CONDITIONS: cynomolgus monkey, in vivo, sc, 35 mg/kg
Field format: number, assumed µL⁻¹, no unit text.

WBC reported for this substance 1198440 (AAGTGTATGTCAGAAG; cEt, 2'-MOE, 5-methylcytosine, phosphorothioate modifications, further chemistry not given here) [compound 1198440] : 10900

WBC reported for this substance 1198872 (TGTATGTCAGAAGAGT; chemically modified gapmer, further chemistry not given here) [compound 1198872] : 10400

WBC reported for this substance 1198439 (AGTGTATGTCAGAAGA; sugar, 5-methylcytosine, phosphorothioate modifications, further chemistry not given here) [compound 1198439] : 10300

WBC reported for this substance 1198831 (CACTTTTACATTAGGA; chemically modified gapmer, further chemistry not given here) [compound 1198831] : 7600

WBC reported for this substance 958499 (ATTAGAGTATGTGGCA; 3-10-3 cEt gapmer, further chemistry not given here) [compound 958499] : 12000

WBC reported for this substance 1198623 (CTAAGTAAGGTTTCCC; modified gapmer, further chemistry not given here) [compound 1198623] : 11700

WBC reported for this substance 1198605 (GTAATATTGCAATCTG; modified gapmer, further chemistry not given here) [compound 1198605] : 10500

* * *

Record form. Attribute: pIC50. Fill in for each entry.
Test system: Yap1 mRNA
MEASUREMENT_NOTES: Dose-dependent inhibition of human Yap1 in SNU-449 cells (Example 9, RTS36584)
Type: cell-based
APPLIED_CONDITIONS: free uptake, linear regression on a log/linear plot
Strand notation (5' to 3'): a small letter for the sugar, then the base; units joined by * are phosphorothioate-linked, units joined directly phosphodiester-linked; [ ] holds rarer units or linkages, { } end groups; capitals alone tell only the bases. e = 2'-O-(2-methoxyethyl) (MOE); k = constrained ethyl (cEt); [5mC] = 5-methylcytosine; d = 2'-deoxy (DNA); m = 2'-O-methyl
Reminder that pIC50 means the negative base-10 logarithm of the concentration expressed in mol/L.

pIC50 reported for this substance 1197313 (kA*kG*kT*dG*mU*dA*dT*dG*dT*d[5mC]*dA*dG*dA*kA*kG*kA; antisense) [compound 1197313] : 7.00

pIC50 reported for this substance 1200806 (kT*kG*kA*dG*dG*mU*dA*dT*dA*dA*d[5mC]*dT*dG*kG*kG*k[5mC]; antisense) [compound 1200806] : 6.70

pIC50 reported for this substance 1198554 (kT*kT*kA*dG*dA*dG*dT*dA*dT*dG*dT*dG*kG*k[5mC]*kA*eA; antisense) [compound 1198554] : 7.00

* * *

Record form. Attribute: YAP1 (% UT). Fill in for each entry.
Test system: Yap1 mRNA
MEASUREMENT_NOTES: Antisense inhibition of human Yap1 in SNU-449 cells by modified oligonucleotides, single dose (Example 5, RTS36584)
Assay type: cell-based
APPLIED_CONDITIONS: Table 50; Yap1 mRNA remaining as percent of untreated control (UT), SNU-449 cells, single dose
Strand notation (5' to 3'): a small letter for the sugar, then the base; units joined by * are phosphorothioate-linked, units joined directly phosphodiester-linked; [ ] holds rarer units or linkages, { } end groups; capitals alone tell only the bases. e = 2'-O-(2-methoxyethyl) (MOE); k = constrained ethyl (cEt); [5mC] = 5-methylcytosine; d = 2'-deoxy (DNA); m = 2'-O-methyl
Field format: number, assumed % UT, no unit text.

YAP1 (% UT) reported for this substance 1198601 (antisense kA*kT*kT*dG*d[5mC]*dA*dA*dT*d[5mC]*dT*dG*dT*k[5mC]*kT*kG*eA) [Compound 1198601] : 50

YAP1 (% UT) reported for this substance 1198619 (kT*kA*kA*dG*dG*dT*dT*dT*d[5mC]*d[5mC]*d[5mC]*dA*kG*kA*kT*eT) [Compound 1198619] : 53

YAP1 (% UT) reported for this substance 1198595 (antisense kT*k[5mC]*kT*dT*dA*dT*dA*dT*dG*dG*dT*dT*kT*kT*kG*eT) [Compound 1198595] : 27

YAP1 (% UT) reported for this substance 1095453 (antisense kT*kG*kA*dG*dG*dT*dA*dT*dA*dA*d[5mC]*dT*kG*kG*kG*e[5mC]) [Compound 1095453] : 32

YAP1 (% UT) reported for this substance 1095435 (antisense kA*k[5mC]*kT*dG*dA*dG*dG*dT*dA*dT*dA*dA*k[5mC]*kT*kG*eG) [Compound 1095435] : 39

YAP1 (% UT) reported for this substance 1197285 (kA*kG*kA*dG*mU*dA*dT*dG*dT*dG*dG*d[5mC]*dA*kA*kT*kA; antisense) [Compound 1197285] : 28

* * *

System: Yap1 mRNA
MEASUREMENT_NOTES: Antisense inhibition of human Yap1 in A-431 cells by cEt gapmers, single dose (Example 3, RTS36584)
Type: cell-based
APPLIED_CONDITIONS: Table 13; A-431 cells, 5,000 cells per well, free uptake, 2,000 nM modified oligonucleotide, approx. 48 hours; RTS36584; normalized to RIBOGREEN; Yap1 mRNA relative to untreated control cells
Strand notation (5' to 3'): a small letter for the sugar, then the base; units joined by * are phosphorothioate-linked, units joined directly phosphodiester-linked; [ ] holds rarer units or linkages, { } end groups; capitals alone tell only the bases. k = constrained ethyl (cEt); [5mC] = 5-methylcytosine; d = 2'-deoxy (DNA)
PROPERTY_NAME: YAP1 (% UTC)
Field format: number, assumed % UTC, no unit text.

YAP1 (% UTC) reported for this substance 958485 (kA*kG*kA*dG*dG*dT*d[5mC]*dA*dG*d[5mC]*dA*dA*dT*kA*k[5mC]*kA; antisense) [Compound 958485] : 3

YAP1 (% UTC) reported for this substance 958565 (kT*kT*kG*dA*dG*d[5mC]*dA*d[5mC]*dT*dG*dA*dA*dA*kG*kT*kA; antisense) [Compound 958565] : 4

YAP1 (% UTC) reported for this substance 958455 (antisense kA*kG*kA*dG*dG*dA*dA*dT*dG*dA*dG*d[5mC]*dT*k[5mC]*kG*kA) [Compound 958455] : 43

YAP1 (% UTC) reported for this substance 958545 (kA*k[5mC]*kT*d[5mC]*dT*dA*dG*dT*dT*dA*d[5mC]*dA*dT*k[5mC]*kA*kT; antisense) [Compound 958545] : 3

YAP1 (% UTC) reported for this substance 958570 (kT*kG*kT*dA*dA*dT*dT*d[5mC]*dA*dT*dA*dT*dA*k[5mC]*k[5mC]*k[5mC]; antisense) [Compound 958570] : 5

YAP1 (% UTC) reported for this substance 958800 (antisense kT*k[5mC]*kG*dA*dT*dA*dA*dT*dA*dT*dA*dT*dG*kG*k[5mC]*kA) [Compound 958800] : 22

YAP1 (% UTC) reported for this substance 958590 (kA*kG*kG*dT*dA*dT*dA*dA*d[5mC]*dT*dG*dG*dG*k[5mC]*kA*kA) [Compound 958590] : 2

YAP1 (% UTC) reported for this substance 958790 (antisense kG*kA*kA*dA*dA*dG*dA*d[5mC]*dG*dA*d[5mC]*dA*d[5mC]*kA*kG*kT) [Compound 958790] : 68

YAP1 (% UTC) reported for this substance 958630 (antisense kG*k[5mC]*kG*dG*dT*dA*dA*d[5mC]*dT*d[5mC]*dT*dT*d[5mC]*kT*kT*kT) [Compound 958630] : 52

YAP1 (% UTC) reported for this substance 958760 (antisense kA*kG*kT*dA*dA*dT*dA*dG*dA*dT*d[5mC]*dT*dA*k[5mC]*kA*kA) [Compound 958760] : 76

YAP1 (% UTC) reported for this substance 958610 (antisense kA*kG*kG*dT*dA*dA*d[5mC]*dA*dT*dT*dG*dG*dT*kA*k[5mC]*kT) [Compound 958610] : 34

YAP1 (% UTC) reported for this substance 958500 (kT*k[5mC]*kT*dA*dT*dA*dT*dT*dA*dG*dA*dG*dT*kA*kT*kG) [Compound 958500] : 5

YAP1 (% UTC) reported for this substance 958820 (kG*kA*k[5mC]*d[5mC]*dA*dG*dT*dA*dA*dG*dA*dA*dG*k[5mC]*k[5mC]*kA; antisense) [Compound 958820] : 49

* * *

Test system: Yap1 mRNA
MEASUREMENT_NOTES: Dose-dependent inhibition of human Yap1 in A-431 cells (Example 8, 10,000 cells per well, RTS4814)
Assay type: cell-based
APPLIED_CONDITIONS: 500.0 nM; A-431 cells, 10,000 cells per well, free uptake, approximately 48 hours, RTS4814
Strand notation (5' to 3'): a small letter for the sugar, then the base; units joined by * are phosphorothioate-linked, units joined directly phosphodiester-linked; [ ] holds rarer units or linkages, { } end groups; capitals alone tell only the bases. k = constrained ethyl (cEt); [5mC] = 5-methylcytosine; d = 2'-deoxy (DNA)
PROPERTY_NAME: Yap1 mRNA, % UTC (% UTC)
Field format: number, assumed % UTC, no unit text.

Yap1 mRNA, % UTC reported for this substance 1075498 (k[5mC]*kA*kT*dT*dA*dT*dA*dT*dA*dA*dT*dG*d[5mC]*kA*kG*kG; antisense) [compound 1075498] : 21

Yap1 mRNA, % UTC reported for this substance 1076516 (k[5mC]*kA*kT*dA*dA*dA*d[5mC]*dA*dT*dG*dA*dG*dT*kG*kG*kT; antisense) [compound 1076516] : 18

Yap1 mRNA, % UTC reported for this substance 1074560 (DNA k[5mC]*k[5mC]*kA*dA*dT*d[5mC]*dG*dA*dG*dA*d[5mC]*dT*dT*kA*kA*kA) [compound 1074560] : 6

Yap1 mRNA, % UTC reported for this substance 1074607 (DNA kA*kA*kG*dG*dT*dA*dT*dA*dA*dT*d[5mC]*dA*dT*kG*kA*kT) [compound 1074607] : 10

Yap1 mRNA, % UTC reported for this substance 1076070 (kA*kT*kT*dA*dG*dT*dA*dA*dT*dG*d[5mC]*dA*d[5mC]*kA*kG*kG; antisense) [compound 1076070] : 8

Yap1 mRNA, % UTC reported for this substance 1074563 (DNA kT*kG*kA*dA*dT*dT*d[5mC]*d[5mC]*dA*dA*dT*d[5mC]*dG*kA*kG*kA; antisense) [compound 1074563] : 7

Yap1 mRNA, % UTC reported for this substance 1075246 (kG*kA*kT*dA*dA*d[5mC]*dT*dA*dG*dT*dA*dA*d[5mC]*k[5mC]*kG*kT; antisense) [compound 1075246] : 12

Yap1 mRNA, % UTC reported for this substance 1076397 (antisense kA*kA*k[5mC]*d[5mC]*dT*dA*dT*dA*dT*dT*dT*dG*dA*kG*k[5mC]*k[5mC]) [compound 1076397] : 5

Yap1 mRNA, % UTC reported for this substance 1075808 (kG*k[5mC]*kA*dA*dT*dA*dG*dA*dG*dT*dA*dA*d[5mC]*k[5mC]*kA*kG; antisense) [compound 1075808] : 4

Yap1 mRNA, % UTC reported for this substance 1076114 (kA*kT*kT*dA*dG*dT*dA*dA*dG*d[5mC]*dT*dG*dA*kG*kG*kA; antisense) [compound 1076114] : 6

Yap1 mRNA, % UTC reported for this substance 1075084 (antisense kT*kG*kA*d[5mC]*dA*dA*d[5mC]*dA*dA*d[5mC]*dA*d[5mC]*dT*k[5mC]*k[5mC]*kT) [compound 1075084] : 37

Yap1 mRNA, % UTC reported for this substance 1074610 (DNA kT*k[5mC]*kT*dA*dG*dT*dT*dA*d[5mC]*dA*dT*d[5mC]*dA*kT*k[5mC]*kT) [compound 1074610] : 10

Yap1 mRNA, % UTC reported for this substance 1074755 (k[5mC]*kA*k[5mC]*dT*dT*dT*dT*dA*d[5mC]*dA*dT*dT*dA*kG*kG*kA; antisense) [compound 1074755] : 5
